Documented % Inhibition across a set of substances
Test system: bombesin receptor
experiment: competitive binding assay, 125I-Bombesin, rat brain membranes
test_parameters: inhibition of 0.01 nM 125I-Bombesin binding; rat brain membranes; test concentration not given
Experimental: Rat brain membranes were utilized as the source of bombesin receptor. […] The filters were dried and counted in a gamma counter for retained radioactivity. Non-specific binding was measured by including 1 μM Bombesin in the assay tube. The assay was performed in triplicate and results calculated to determine percentage inhibition of the ^125I-Bombesin binding to its receptors by a test compound. […]
Square brackets hold non-standard residues; d marks the D form. Ends that are not written are not given here. pGlu = O=C1CC[C@@H](C(=O)O)N1; Nle = CCCC[C@H](N)C(=O)O

substance	% Inhibition, %
Ac-Ala-Gln-Cys-Leu-Gly-Asn-Gln-Trp-Ala-Val-Gly-His-Leu-Nle-NH2 (Ac-AQCLGNQWAVGHL[Nle]-NH2; also: oxorhenium(V) N3S1 tetradentate complex via Cys) [7-12]	96
Pyr-Gln-Arg-Leu-Gly-Asn-Gln-Trp-Ala-Val-Gly-His-Cys-Leu-Nle-NH2 ([pGlu]QRLGNQWAVGHCL[Nle]-NH2; numbers in words are those of the source; also: rhenium complex (oxorhenium(V) N3S1 chelate via Cys)) [6-3]	71
D-Phe-Gln-Trp-Ala-Val-Gly-His-Cys-Leu-NH2 ([dF]QWAVGHCL-NH2; also: rhenium complex (oxorhenium(V) N3S1 chelate via Cys)) [9-2]	35
Trp-Ala-Val-Cys-His-Leu-NH2 (WAVCHL-NH2; not fully specified (bridges); printed as Trp-Ala-Val-Cys-His-Leu-NH2; also: oxorhenium(V) N3S1 chelate (Re=O) with Cys) [11-8]	13

###

study_target: hMC5-R (Homo sapiens, UniProt P33032)
Construct: expressed in transfected cells
Sequence (P33032 whole entry): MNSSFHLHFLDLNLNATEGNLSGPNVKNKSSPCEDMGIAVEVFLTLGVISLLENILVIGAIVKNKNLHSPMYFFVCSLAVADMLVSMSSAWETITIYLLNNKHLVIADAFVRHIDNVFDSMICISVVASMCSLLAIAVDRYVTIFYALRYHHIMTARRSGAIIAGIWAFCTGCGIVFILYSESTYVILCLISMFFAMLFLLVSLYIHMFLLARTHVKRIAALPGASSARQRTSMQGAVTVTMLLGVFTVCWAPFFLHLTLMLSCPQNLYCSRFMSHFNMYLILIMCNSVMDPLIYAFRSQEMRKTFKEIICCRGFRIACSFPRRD
experiment: competitive inhibition binding assay, 125I-NDP-alpha-MSH, hMC5-R membranes
test_parameters: 1 μM test peptide; 0.4 nM 125I-NDP-alpha-MSH; hMC5-R membranes
Square brackets hold non-standard residues; d marks the D form. Ends that are not written are not given here. Nle = CCCC[C@H](N)C(=O)O
readout_label: % Inhibition at 1 μM at Melanocortin Receptor 5 (%)

substance	observed_value
Tyr-Val-Nle-Gly-His-D-Phe-Arg-Trp-Asp-Cys-Arg-Phe-NH2 (YV[Nle]GH[dF]RWDCRF-NH2; also: Re complex) [3-3]	99
Ac-Ser-Tyr-Ser-Cys-Nle-Glu-His-Phe-Arg-Trp-Gly-Lys-Pro-Val-NH2 (chain 1 Ac-SYSC[Nle]; chain 2 EHFRWGKPV-NH2; not fully specified (bridges); printed as Ac-Ser-Tyr-Ser-Cys-Nle-Glu-His-Phe-Arg-Trp-Gly-Lys-Pro-Val-NH2; also: oxorhenium(V) N3S1 chelate (Re(V)=O)) [1-11]	6
Tyr-Val-Nle-Gly-His-Cys-Phe-Arg-Trp-Asp-Arg-Phe-NH2 (YV[Nle]GHCFRWDRF-NH2; numbers in words are those of the source; also: oxorhenium(V) N3S1 chelate (Re=O) with Cys) [4-7]	15
Ac-Ser-Tyr-Ser-Nle-Glu-His-Phe-Arg-Trp-Gly-Lys-D-Cys-Pro-Val-NH2 (Ac-SYS[Nle]EHFRWGK[dC]PV-NH2; not fully specified (bridges); printed as Ac-Ser-Tyr-Ser-Nle-Glu-His-Phe-Arg-Trp-Gly-Lys-D-Cys-Pro-Val-NH2; numbers in words are those of the source; also: oxorhenium(V) N3S1 chelate (Re(V)=O)) [2-3]	38
Tyr-Val-Nle-Gly-His-Phe-Arg-Trp-Cys-Asp-Arg-Phe-NH2 (YV[Nle]GHFRWCDRF-NH2; numbers in words are those of the source; also: oxorhenium(V) N3S1 chelate (Re=O) with Cys) [4-4]	47
Tyr-Val-Nle-Gly-Cys-D-Phe-Arg-Trp-Asp-Arg-Phe-NH2 (YV[Nle]GC[dF]RWDRF-NH2; not fully specified (bridges); printed as Tyr-Val-Nle-Gly-Cys-D-Phe-Arg-Trp-Asp-Arg-Phe-NH2; numbers in words are those of the source; also: oxorhenium(V) N3S1 chelate complex (Re=O)) [5-7]	88
Tyr-Val-Nle-Gly-His-D-Phe-Arg-Cys-Asp-Arg-Phe-NH2 (YV[Nle]GH[dF]RCDRF-NH2; numbers in words are those of the source; also: oxorhenium(V) N3S1 chelate complex (Re=O)) [5-4]	58
Ac-Ser-Tyr-Ser-Nle-Glu-His-Phe-Arg-Trp-Gly-Lys-Gly-Cys-Val-NH2 (Ac-SYS[Nle]EHFRWGKGCV-NH2; not fully specified (bridges); printed as Ac-Ser-Tyr-Ser-Nle-Glu-His-Phe-Arg-Trp-Gly-Lys-Gly-Cys-Val-NH2; numbers in words are those of the source; also: oxorhenium(V) N3S1 chelate (Re(V)=O)) [1-2]	37
Tyr-Val-Nle-Gly-His-D-Phe-Arg-Trp-Asp-Arg-Cys-Phe-NH2 (YV[Nle]GH[dF]RWDRCF-NH2; also: Re complex) [3-2]	100
Ac-Ser-Tyr-Ser-Nle-Glu-His-Phe-Arg-Trp-Gly-Cys-Lys-Pro-Val-NH2 (Ac-SYS[Nle]EHFRWGCKPV-NH2; not fully specified (bridges); printed as Ac-Ser-Tyr-Ser-Nle-Glu-His-Phe-Arg-Trp-Gly-Cys-Lys-Pro-Val-NH2; numbers in words are those of the source; also: oxorhenium(V) N3S1 chelate (Re(V)=O)) [1-4]	6

###

Below is a list of entries, each paired with its recorded % Inhibition at 1 μM at Melanocortin Receptor 5 value.
study_target: hMC5-R (Homo sapiens, UniProt P33032)
Construct: expressed in transfected cells
experiment: competitive inhibition binding assay, 125I-NDP-alpha-MSH, hMC5-R membranes
test_parameters: 1 μM test peptide; 0.4 nM 125I-NDP-alpha-MSH; hMC5-R membranes
Square brackets hold non-standard residues; d marks the D form. Ends that are not written are not given here. Nle = CCCC[C@H](N)C(=O)O
readout_label: % Inhibition at 1 μM at Melanocortin Receptor 5 (%)

substance	endpoint_unit	observed_value
Tyr-Val-Nle-Gly-His-D-Phe-Arg-Trp-Asp-Cys-Phe-NH2 (YV[Nle]GH[dF]RWDCF-NH2; numbers in words are those of the source; also: oxorhenium(V) N3S1 chelate complex (Re=O)) [5-2]	%	61
Tyr-Val-Nle-Gly-His-D-Phe-Arg-Trp-Cys-Arg-Phe-NH2 (YV[Nle]GH[dF]RWCRF-NH2; numbers in words are those of the source; also: oxorhenium(V) N3S1 chelate complex (Re=O)) [5-3]	%	100
Ac-Ser-Tyr-Ser-Nle-Glu-His-Phe-Arg-Trp-D-Cys-Gly-Lys-Pro-Val-NH2 (chain 1 Ac-SYS[Nle]EHFRW; chain 2 [dC]GKPV-NH2; not fully specified (bridges); numbers in words are those of the source; also: oxorhenium(V) N3S1 chelate (Re(V)=O)) [2-5]	%	0

###

study_target: hMC5-R (Homo sapiens, UniProt P33032)
Construct: expressed in transfected cells
experiment: competitive inhibition binding assay, 125I-NDP-alpha-MSH, hMC5-R membranes
test_parameters: 1 μM test peptide; 0.4 nM 125I-NDP-alpha-MSH; hMC5-R membranes
Square brackets hold non-standard residues; d marks the D form. Ends that are not written are not given here. Nle = CCCC[C@H](N)C(=O)O
Measured % Inhibition at 1 μM at Melanocortin Receptor 5, listed per entry.
readout_label: % Inhibition at 1 μM at Melanocortin Receptor 5

substance	study_target	observed_value
Ac-Ser-Tyr-Ser-Nle-D-Cys-Glu-His-Phe-Arg-Trp-Gly-Lys-Pro-Val-NH2 (Ac-SYS[Nle][dC]EHFRWGKPV-NH2; numbers in words are those of the source; also: oxorhenium(V) N3S1 chelate via Cys (Re(V)=O)) [2-10]	hMC5-R (Homo sapiens, UniProt P33032)	0%
Tyr-Val-Nle-Gly-His-Phe-Arg-Cys-Trp-Asp-Arg-Phe-NH2 (YV[Nle]GHFRCWDRF-NH2; numbers in words are those of the source; also: oxorhenium(V) N3S1 chelate (Re=O) with Cys) [4-5]	hMC5-R (Homo sapiens, UniProt P33032)	68%
Ac-Ser-Tyr-Ser-Nle-Glu-His-Cys-Phe-Arg-Trp-Gly-Lys-Pro-Val-NH2 (Ac-SYS[Nle]EHCFRWGKPV-NH2; not fully specified (bridges); printed as Ac-Ser-Tyr-Ser-Nle-Glu-His-Cys-Phe-Arg-Trp-Gly-Lys-Pro-Val-NH2; numbers in words are those of the source; also: oxorhenium(V) N3S1 chelate (Re(V)=O)) [1-8]	hMC5-R (Homo sapiens, UniProt P33032)	1%
Tyr-Val-Nle-Gly-His-Cys-Arg-Trp-Asp-Arg-Phe-NH2 (YV[Nle]GHCRWDRF-NH2; numbers in words are those of the source; also: oxorhenium(V) N3S1 chelate (Re=O) with Cys) [5-6]	hMC5-R (Homo sapiens, UniProt P33032)	21%
Ac-Ser-Tyr-Ser-Nle-Glu-His-Phe-Arg-D-Cys-Trp-Gly-Lys-Pro-Val-NH2 (chain 1 Ac-SYS[Nle]EHFR; chain 2 [dC]WGKPV-NH2; not fully specified (bridges); numbers in words are those of the source; also: oxorhenium(V) N3S1 chelate (Re(V)=O)) [2-6]	hMC5-R (Homo sapiens, UniProt P33032)	6%
Tyr-Val-Nle-Gly-His-D-Phe-Arg-Trp-Asp-Arg-Cys-NH2 (YV[Nle]GH[dF]RWDRC-NH2; numbers in words are those of the source; also: oxorhenium(V) N3S1 chelate complex (Re=O)) [5-1]	hMC5-R (Homo sapiens, UniProt P33032)	98%
Tyr-Val-Nle-Cys-His-D-Phe-Arg-Trp-Asp-Arg-Phe-NH2 (YV[Nle]CH[dF]RWDRF-NH2; not fully specified (bridges); printed as Tyr-Val-Nle-Cys-His-D-Phe-Arg-Trp-Asp-Arg-Phe-NH2; numbers in words are those of the source; also: oxorhenium(V) N3S1 chelate complex (Re=O)) [5-8]	hMC5-R (Homo sapiens, UniProt P33032)	98%
